target: Nicotinic acetylcholine receptor (Rattus leucopus, UniProt Q62594)
Sequence (Q62594 whole entry): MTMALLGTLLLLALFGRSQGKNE
pKi: −log10 of the molar value.

compound	test-system	pKi
COc1cc2c3cc1Oc1cc(ccc1O)CC1c4c(cc(OC)c(O)c4Oc4ccc(cc4)CC3[N+](C)(C)CC2)CC[N+]1(C)C (stereo unspecified)	Nicotinic acetylcholine receptor (Rattus leucopus, UniProt Q62594)	5.42
